system under test: T1, Axl (Homo sapiens, UniProt P30530)
T1 sequence (P30530 26-451 limits assumed): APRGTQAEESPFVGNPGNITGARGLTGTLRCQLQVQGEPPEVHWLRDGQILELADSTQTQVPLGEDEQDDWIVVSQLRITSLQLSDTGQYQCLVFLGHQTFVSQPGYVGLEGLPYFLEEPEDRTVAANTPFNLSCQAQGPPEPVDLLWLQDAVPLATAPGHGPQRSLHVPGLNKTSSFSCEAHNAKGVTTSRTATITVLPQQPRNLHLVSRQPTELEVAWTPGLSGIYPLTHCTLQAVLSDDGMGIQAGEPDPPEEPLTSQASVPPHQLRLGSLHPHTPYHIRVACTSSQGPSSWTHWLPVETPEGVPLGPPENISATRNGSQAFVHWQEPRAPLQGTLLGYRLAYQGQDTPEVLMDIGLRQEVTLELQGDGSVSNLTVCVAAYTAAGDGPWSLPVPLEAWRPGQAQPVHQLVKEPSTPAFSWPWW
assay notes: Affinity ELISA of CPE mutant antibodies for binding to Axl at pH 6.0 over pH 7.4
condition notes: light chain variable region mutants; 1:3 dilution
Known Affinity ELISA CPE mutant ratio (1:3, pH 6.0/7.4) of a selection of molecules
Please give only the number in your answer, with no unit.

Before answering, review these 5 worked examples.
- LC-F092E (antibody, V domains shown) VH: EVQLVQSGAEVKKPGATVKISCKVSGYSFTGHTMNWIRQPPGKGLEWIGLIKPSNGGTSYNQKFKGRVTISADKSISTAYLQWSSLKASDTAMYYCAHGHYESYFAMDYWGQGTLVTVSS VL: DIQMTQSPSSLSASVGDRVTITCKASQDVSSAVAWYQQKPGQAPRLLIYWASTRHTGVPSRFSGSGSGTEFTLTISSLQPDDFATYYCQEHESTPLTFGQGTKVEIK: 1.759
- LC-P095T (antibody, V domains shown) VH: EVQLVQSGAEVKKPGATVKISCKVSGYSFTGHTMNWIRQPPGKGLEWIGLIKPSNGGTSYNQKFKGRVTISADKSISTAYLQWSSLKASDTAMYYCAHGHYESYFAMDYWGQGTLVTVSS VL: DIQMTQSPSSLSASVGDRVTITCKASQDVSSAVAWYQQKPGQAPRLLIYWASTRHTGVPSRFSGSGSGTEFTLTISSLQPDDFATYYCQEHFSTTLTFGQGTKVEIK: 2.497
- LC-H091Q (antibody, V domains shown) VH: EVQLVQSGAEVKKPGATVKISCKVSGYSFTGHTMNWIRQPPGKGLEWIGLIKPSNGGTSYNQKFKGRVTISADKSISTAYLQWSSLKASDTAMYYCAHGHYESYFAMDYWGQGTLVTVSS VL: DIQMTQSPSSLSASVGDRVTITCKASQDVSSAVAWYQQKPGQAPRLLIYWASTRHTGVPSRFSGSGSGTEFTLTISSLQPDDFATYYCQEQFSTPLTFGQGTKVEIK: 1.770
- LC-T094C (antibody, V domains shown) VH: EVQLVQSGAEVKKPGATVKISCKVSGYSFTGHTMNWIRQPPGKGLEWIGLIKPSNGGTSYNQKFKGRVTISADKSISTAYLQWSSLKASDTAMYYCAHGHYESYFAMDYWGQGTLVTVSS VL: DIQMTQSPSSLSASVGDRVTITCKASQDVSSAVAWYQQKPGQAPRLLIYWASTRHTGVPSRFSGSGSGTEFTLTISSLQPDDFATYYCQEHFSCPLTFGQGTKVEIK: 1.423
- LC-A051P (antibody, V domains shown) VH: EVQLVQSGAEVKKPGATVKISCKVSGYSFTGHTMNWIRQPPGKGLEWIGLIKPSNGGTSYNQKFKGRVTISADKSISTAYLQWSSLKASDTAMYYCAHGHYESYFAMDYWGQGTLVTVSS VL: DIQMTQSPSSLSASVGDRVTITCKASQDVSSAVAWYQQKPGQAPRLLIYWPSTRHTGVPSRFSGSGSGTEFTLTISSLQPDDFATYYCQEHFSTPLTFGQGTKVEIK: 1.920

Fill in the blank: the reported Affinity ELISA CPE mutant ratio (1:3, pH 6.0/7.4) of LC-L096R (antibody, V domains shown) VH: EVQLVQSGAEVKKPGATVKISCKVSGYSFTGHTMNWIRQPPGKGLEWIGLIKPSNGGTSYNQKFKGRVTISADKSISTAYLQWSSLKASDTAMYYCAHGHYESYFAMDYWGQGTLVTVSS VL: DIQMTQSPSSLSASVGDRVTITCKASQDVSSAVAWYQQKPGQAPRLLIYWASTRHTGVPSRFSGSGSGTEFTLTISSLQPDDFATYYCQEHFSTPRTFGQGTKVEIK is ____.
2.876

// data source = patent US20250276075A1
